B1: HHH_rd1_0493 (parent)
chain: RDEDEKEKIKEALKRGNEDKAKEIAKRANVSPEEYERLRKEAE

Variants of: B1
Test: folding stability dG (cDNA display proteolysis); higher = more stable
Conditions: PBS, room temperature
metric_name: folding stability dG (kJ/mol)
Answers are plain numbers, in kJ/mol.

Below are worked cases with known answers.
# sequence_content, unit_descriptor, observed
rows = [
    ("RDELEKEKIKEALKRGNEDKAKEIAKRANVSPEEYERLRKEAE [D4L]", "kJ/mol", 12.6),
    ("RDEFEKEKIKEALKRGNEDKAKEIAKRANVSPEEYERLRKEAE [D4F]", "kJ/mol", 11.4),
    ("RDEDEKEKIKEALKRGNEDKAKEIAKRANVSPEEYERFRKEAE [L38F]", "kJ/mol", 6.6),
]

Hi team, please reply with folding stability dG for each item in this list.
1. RDEDEKEKIKEALKRGNEDKQKEIAKRANVSPEEYERLRKEAE [A21Q]
2. RDEDEKEKIKYALKRGNEDKAKEIAKRANVSPEEYERLRKEAE [E11Y]
3. RDEDEKEEIKEALKRGNEDKAKEIAKRANVSPEEYERLRKEAE [K8E]
4. MDEDEKEKIKEALKRGNEDKAKEIAKRANVSPEEYERLRKEAE [R1M]
5. RDEDEKEKIVEALKRGNEDKAKEIAKRANVSPEEYERLRKEAE [K10V]

[1.52, 6.98, 11.1, 12.7, 9.53]

Each variant below has a recorded value; state its folding stability dG.
1. RDEDEKEKIKEALKRGNEDKAKEIAKRANVSPEEYERLRKEAG [E43G]
2. RDEDEKEKIKEALKRGNEDKAKEIAKRANVSPEKYERLRKEAE [E34K]
3. RDEDEKEKIKESLKRGNEDKAKEIAKRANVSPEEYERLRKEAE [A12S]

1: 10.3; 2: -0.9; 3: 9.01

List folding stability dG for every entry below, keeping the order given.
1. RDEDEKEKIKEALKRGNEDKAKEIAKRANVSLEEYERLRKEAE [P32L]
2. YDEDEKEKIKEALKRGNEDKAKEIAKRANVSPEEYERLRKEAE [R1Y]
3. RDEDEKEKIKEALKRGNEDKAKEIAKRANVCPEEYERLRKEAE [S31C]
4. RDETEKEKIKEALKRGNEDKAKEIAKRANVSPEEYERLRKEAE [D4T]
5. RDEDEKEKIKEALKRGNEDKAKEIAKYANVSPEEYERLRKEAE [R27Y]
6. RDEDEKEKIKEALKRGNEDKAKEIAKRANVSPEEYERLRKEAT [E43T]
7. RDEDEKEKIKEALKRGNEDKAKEIAKRANVSPSEYERLRKEAE [E33S]
8. RDEDEKEKIKEALKRGNEMKAKEIAKRANVSPEEYERLRKEAE [D19M]

1: 11.9; 2: 13; 3: 7.26; 4: 12.2; 5: 9.23; 6: 11.1; 7: 10.2; 8: 12.7

Provide reported folding stability dG for each item, in the same order as listed.
1. RDEDEKFKIKEALKRGNEDKAKEIAKRANVSPEEYERLRKEAE [E7F]
2. RDEDEKEFIKEALKRGNEDKAKEIAKRANVSPEEYERLRKEAE [K8F]
3. RDEDEKEKIKEALKRGNEDKAKEIAKRANVSPEEYERSRKEAE [L38S]

12.5
8.89
1.58
